Entry source: PubChem BioAssay (NCATS)

- Tested on: CP252
- experiment-summary: qHTS profiling for inhibitors of Plasmodium falciparum proliferation (AID 504749); also: nearly all actives have a fitted effect of over 60% in size
- settings: P. falciparum in erythrocytes, SYBR Green DNA, 72 h; series mostly up to 28.7 µM
Records with an inconclusive call do not appear. Calls of active or inactive are those of the source. Calls follow the shape of the dose curve; as a rule, active = well fitted inhibition curve with a large enough effect; inconclusive = small, poorly fitted or top-dose-only effect; inactive = flat fitted curve, though single readings scatter.
Allowed answers: active, inactive

Check out these entries, answers already filled in.
[[record]]
compound = "O=C(O)Cc1ccc(-c2ccccc2)cc1"
class_assignment = "inactive"

[[record]]
compound = "COc1ccc(-c2cc(=S)ss2)cc1"
class_assignment = "inactive"

[[record]]
compound = "CCCSc1ccc2nc(NC(=O)OC)[nH]c2c1"
class_assignment = "inactive"

[[record]]
compound = "O=C(O)c1cc(O)c(O)c(O)c1"
class_assignment = "inactive"

[[record]]
compound = "O=C(Nc1ccc(C(=O)O)c(O)c1)c1ccccc1"
class_assignment = "inactive"

[[record]]
compound = "O=C(O)COc1ccc(C(=O)c2cccs2)c(Cl)c1Cl"
class_assignment = "inactive"


Any idea what this test logged for CCCOC(=O)c1ccc(O)cc1 ?
inactive

Any idea what this test logged for O=C(O)/C=C/C(O)c1ccc(Cl)cc1 (stereo unspecified) ?
inactive

Any idea what this test logged for Cc1c(Nc2ncccc2C(=O)O)cccc1C(F)(F)F ?
inactive

Any idea what this test logged for CN1[C@@H]2CC[C@H]1CC(OC(=O)C(CO)c1ccccc1)C2 (stereo partly specified) ?
inactive
